All values here come from PubChem BioAssay AID1040.

Give inhibition for every item shown.
target: Neuropeptide Y receptor type 1 (Homo sapiens); assay: blockers of human neuropeptide Y Y1 receptor – cell-based, primary screen (AID 1040); details: HEK293-CNG Y1 cells, membrane potential fluorescence; at 3.6 µM; stronger effect = higher value; NPY at EC95, then isoproterenol;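 further: 0% = DMSO wells given NPY plus isoproterenol and 100% = isoproterenol alone without NPY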
Hit rate of the full screen: of about 200,000 compounds, about 2,000 (1%) were called active. Many of the other results were omitted from the sample, so actives are more common in it than they were.
Give your result in % as a bare value.

Enter measured inhibition, system Neuropeptide Y receptor type 1 (Homo sapiens), for the compound shown: "CCOC(=O)c1cccnc1NC(=O)c1ccncc1"
-1.05

Enter measured inhibition, system Neuropeptide Y receptor type 1 (Homo sapiens), for the compound shown: "CCOC(=O)c1nn(-c2cccc(C)c2)cc1C(=O)c1ccccc1"
22

Enter measured inhibition, system Neuropeptide Y receptor type 1 (Homo sapiens), for the compound shown: "c1ccc(-c2ccccc2OCCN2CCCCC2)cc1"
22.3

Enter measured inhibition, system Neuropeptide Y receptor type 1 (Homo sapiens), for the compound shown: "CCOc1ccccc1Nc1ccc(C(=O)O)cc1[N+](=O)[O-]"
3.86

Enter measured inhibition, system Neuropeptide Y receptor type 1 (Homo sapiens), for the compound shown: CC1CCCN(CCOCCOc2ccccc2-c2ccccc2)C1 (stereo not drawn)
12.5

Enter measured inhibition, system Neuropeptide Y receptor type 1 (Homo sapiens), for the compound shown: "Cc1ccc(C(=O)N/C(=C/c2cccs2)C(=O)N2CCCCC2)cc1"
0.27

Enter measured inhibition, system Neuropeptide Y receptor type 1 (Homo sapiens), for the compound shown: "CN1CCN(CCCCOc2ccccc2-c2ccccc2)CC1"
12.9

Enter measured inhibition, system Neuropeptide Y receptor type 1 (Homo sapiens), for the compound shown: "O=C(NCc1ccco1)c1ccc(NS(=O)(=O)c2cccc([N+](=O)[O-])c2)cc1"
-0.88

Enter measured inhibition, system Neuropeptide Y receptor type 1 (Homo sapiens), for the compound shown: O=C1c2ccccc2C(=O)N1c1ccccc1S(=O)C(F)(F)F (stereo not drawn)
21.4

Enter measured inhibition, system Neuropeptide Y receptor type 1 (Homo sapiens), for the compound shown: "Cc1ccc(/C=N/NC(=O)c2sccc2OCc2ccc(F)cc2)cc1"
27.2

Enter measured inhibition, system Neuropeptide Y receptor type 1 (Homo sapiens), for the compound shown: "O=C(CSc1nc2cc3c(cc2c(=O)n1CCC1=CCCCC1)OCO3)NCc1ccco1"
26.8

Enter measured inhibition, system Neuropeptide Y receptor type 1 (Homo sapiens), for the compound shown: "COc1ccc(Cc2nnc(N/N=C/c3ccccc3O)[nH]c2=O)cc1OC"
7.54

Enter measured inhibition, system Neuropeptide Y receptor type 1 (Homo sapiens), for the compound shown: "O=C1C(=O)N(c2ccccc2)c2ccccc21"
7.08

Enter measured inhibition, system Neuropeptide Y receptor type 1 (Homo sapiens), for the compound shown: "COc1cc2c(C(=O)N3CCN(C)CC3)c(CSc3ccccc3)n(C)c2cc1Br"
23.3

Enter measured inhibition, system Neuropeptide Y receptor type 1 (Homo sapiens), for the compound shown: "Cc1ccsc1C(=O)N/N=C/c1ccc([N+](=O)[O-])cc1"
2.54

Enter measured inhibition, system Neuropeptide Y receptor type 1 (Homo sapiens), for the compound shown: "CCOC(=O)c1cn(Cc2cccc(C)c2)nn1"
-0.81

Enter measured inhibition, system Neuropeptide Y receptor type 1 (Homo sapiens), for the compound shown: "O=C(c1ccc(CSc2ccccc2)cc1)N1CCCCCC1"
-0.16

Enter measured inhibition, system Neuropeptide Y receptor type 1 (Homo sapiens), for the compound shown: "COc1ccc(CN(C)C(=S)Nc2ccc(Cl)cc2Cl)cc1"
3.26
